Below is a list of entries, each paired with its recorded shrunken log2 fold change value.
- Test system: Escherichia coli TOP10;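 further: peptides expressed intracellularly from a pBAD plasmid library in pooled LB shake-flask culture, induced with 0.3% L-arabinose, DNA abundance read by NGS, three biological replicates, DESeq2 with apeglm shrinkage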
- procedure.summary: shrunken log2 fold change of peptide-encoding DNA abundance (4.5 h post-induction vs induction); higher = less antimicrobial activity (less host growth inhibition)
- condition.summary: time post-induction: 4.5 h; library: site-saturation at positions 5, 18, 19, 20

[
  {
    "macromolecule.sequence": "RRIRSRPPRLPRPRPRPTRHPRP",
    "shrunken log2 fold change": 0.227
  },
  {
    "macromolecule.sequence": "RRIRIRPPRLPRPRPRPYCIPRP",
    "shrunken log2 fold change": -0.224
  },
  {
    "macromolecule.sequence": "RRIRVRPPRLPRPRPRPYDNPRP",
    "shrunken log2 fold change": -0.199
  },
  {
    "macromolecule.sequence": "RRIRGRPPRLPRPRPRPPYMPRP",
    "shrunken log2 fold change": -0.0678
  },
  {
    "macromolecule.sequence": "RRIRDRPPRLPRPRPRPGPWPRP",
    "shrunken log2 fold change": 0.287
  },
  {
    "macromolecule.sequence": "RRIRTRPPRLPRPRPRPTWDPRP",
    "shrunken log2 fold change": 0.478
  },
  {
    "macromolecule.sequence": "RRIRYRPPRLPRPRPRPKPCPRP",
    "shrunken log2 fold change": -0.0304
  },
  {
    "macromolecule.sequence": "RRIRMRPPRLPRPRPRPPWEPRP",
    "shrunken log2 fold change": 0.601
  },
  {
    "macromolecule.sequence": "RRIRTRPPRLPRPRPRPVKLPRP",
    "shrunken log2 fold change": 0.0303
  },
  {
    "macromolecule.sequence": "RRIRMRPPRLPRPRPRPAPLPRP",
    "shrunken log2 fold change": 0.541
  },
  {
    "macromolecule.sequence": "RRIRRRPPRLPRPRPRPTFAPRP",
    "shrunken log2 fold change": 0.765
  },
  {
    "macromolecule.sequence": "RRIRGRPPRLPRPRPRPFPTPRP",
    "shrunken log2 fold change": 0.63
  },
  {
    "macromolecule.sequence": "RRIRERPPRLPRPRPRPQRLPRP",
    "shrunken log2 fold change": 0.202
  },
  {
    "macromolecule.sequence": "RRIRFRPPRLPRPRPRPWKFPRP",
    "shrunken log2 fold change": 0.0664
  },
  {
    "macromolecule.sequence": "RRIRFRPPRLPRPRPRPDPTPRP",
    "shrunken log2 fold change": 0.0215
  },
  {
    "macromolecule.sequence": "RRIRERPPRLPRPRPRPLTLPRP",
    "shrunken log2 fold change": -0.271
  },
  {
    "macromolecule.sequence": "RRIRCRPPRLPRPRPRPPQIPRP",
    "shrunken log2 fold change": 0.328
  },
  {
    "macromolecule.sequence": "RRIRDRPPRLPRPRPRPTCMPRP",
    "shrunken log2 fold change": -0.0434
  },
  {
    "macromolecule.sequence": "RRIRKRPPRLPRPRPRPMIHPRP",
    "shrunken log2 fold change": -0.00347
  },
  {
    "macromolecule.sequence": "RRIRTRPPRLPRPRPRPKGPPRP",
    "shrunken log2 fold change": 0.0618
  },
  {
    "macromolecule.sequence": "RRIRRRPPRLPRPRPRPAEWPRP",
    "shrunken log2 fold change": 0.136
  },
  {
    "macromolecule.sequence": "RRIRSRPPRLPRPRPRPCTGPRP",
    "shrunken log2 fold change": -0.0404
  },
  {
    "macromolecule.sequence": "RRIRARPPRLPRPRPRPYCSPRP",
    "shrunken log2 fold change": 0.0743
  },
  {
    "macromolecule.sequence": "RRIRLRPPRLPRPRPRPMRMPRP",
    "shrunken log2 fold change": -0.076
  },
  {
    "macromolecule.sequence": "RRIRRRPPRLPRPRPRPNHHPRP",
    "shrunken log2 fold change": -0.25
  },
  {
    "macromolecule.sequence": "RRIRTRPPRLPRPRPRPFCMPRP",
    "shrunken log2 fold change": -0.24
  },
  {
    "macromolecule.sequence": "RRIRFRPPRLPRPRPRPEFTPRP",
    "shrunken log2 fold change": 1.75
  },
  {
    "macromolecule.sequence": "RRIRCRPPRLPRPRPRPFPFPRP",
    "shrunken log2 fold change": -0.353
  },
  {
    "macromolecule.sequence": "RRIRCRPPRLPRPRPRPHNHPRP",
    "shrunken log2 fold change": -0.625
  },
  {
    "macromolecule.sequence": "RRIRFRPPRLPRPRPRPGPGPRP",
    "shrunken log2 fold change": 0.676
  },
  {
    "macromolecule.sequence": "RRIRFRPPRLPRPRPRPQPIPRP",
    "shrunken log2 fold change": 0.222
  },
  {
    "macromolecule.sequence": "RRIRYRPPRLPRPRPRPGMRPRP",
    "shrunken log2 fold change": 0.561
  },
  {
    "macromolecule.sequence": "RRIRARPPRLPRPRPRPEFWPRP",
    "shrunken log2 fold change": 1.12
  },
  {
    "macromolecule.sequence": "RRIRERPPRLPRPRPRPRQPPRP",
    "shrunken log2 fold change": 0.273
  },
  {
    "macromolecule.sequence": "RRIRFRPPRLPRPRPRPGSVPRP",
    "shrunken log2 fold change": -0.147
  },
  {
    "macromolecule.sequence": "RRIRNRPPRLPRPRPRPMTYPRP",
    "shrunken log2 fold change": -0.0655
  },
  {
    "macromolecule.sequence": "RRIRCRPPRLPRPRPRPNYAPRP",
    "shrunken log2 fold change": -0.0784
  },
  {
    "macromolecule.sequence": "RRIRYRPPRLPRPRPRPLEPPRP",
    "shrunken log2 fold change": -0.124
  },
  {
    "macromolecule.sequence": "RRIRCRPPRLPRPRPRPEPFPRP",
    "shrunken log2 fold change": 0.0621
  },
  {
    "macromolecule.sequence": "RRIRLRPPRLPRPRPRPSNWPRP",
    "shrunken log2 fold change": -0.196
  },
  {
    "macromolecule.sequence": "RRIRKRPPRLPRPRPRPKFQPRP",
    "shrunken log2 fold change": 0.343
  },
  {
    "macromolecule.sequence": "RRIRWRPPRLPRPRPRPHGGPRP",
    "shrunken log2 fold change": -0.0606
  },
  {
    "macromolecule.sequence": "RRIRRRPPRLPRPRPRPQLGPRP",
    "shrunken log2 fold change": 0.0467
  },
  {
    "macromolecule.sequence": "RRIRWRPPRLPRPRPRPEAMPRP",
    "shrunken log2 fold change": 0.142
  },
  {
    "macromolecule.sequence": "RRIRTRPPRLPRPRPRPEFVPRP",
    "shrunken log2 fold change": 0.107
  },
  {
    "macromolecule.sequence": "RRIRYRPPRLPRPRPRPFQQPRP",
    "shrunken log2 fold change": -0.0176
  },
  {
    "macromolecule.sequence": "RRIRTRPPRLPRPRPRPRSVPRP",
    "shrunken log2 fold change": -0.272
  },
  {
    "macromolecule.sequence": "RRIRPRPPRLPRPRPRPGHTPRP",
    "shrunken log2 fold change": 0.179
  },
  {
    "macromolecule.sequence": "RRIRDRPPRLPRPRPRPSYQPRP",
    "shrunken log2 fold change": -0.494
  },
  {
    "macromolecule.sequence": "RRIRNRPPRLPRPRPRPYELPRP",
    "shrunken log2 fold change": -0.0122
  },
  {
    "macromolecule.sequence": "RRIRSRPPRLPRPRPRPIPVPRP",
    "shrunken log2 fold change": -0.208
  },
  {
    "macromolecule.sequence": "RRIRDRPPRLPRPRPRPTNCPRP",
    "shrunken log2 fold change": -0.0515
  },
  {
    "macromolecule.sequence": "RRIRWRPPRLPRPRPRPLANPRP",
    "shrunken log2 fold change": 0.552
  },
  {
    "macromolecule.sequence": "RRIRARPPRLPRPRPRPKWRPRP",
    "shrunken log2 fold change": 0.176
  },
  {
    "macromolecule.sequence": "RRIRHRPPRLPRPRPRPDCLPRP",
    "shrunken log2 fold change": -0.228
  },
  {
    "macromolecule.sequence": "RRIRERPPRLPRPRPRPRDRPRP",
    "shrunken log2 fold change": 0.0224
  },
  {
    "macromolecule.sequence": "RRIRPRPPRLPRPRPRPIMVPRP",
    "shrunken log2 fold change": -0.158
  },
  {
    "macromolecule.sequence": "RRIRMRPPRLPRPRPRPSYNPRP",
    "shrunken log2 fold change": -0.808
  },
  {
    "macromolecule.sequence": "RRIRERPPRLPRPRPRPMISPRP",
    "shrunken log2 fold change": -0.11
  },
  {
    "macromolecule.sequence": "RRIRDRPPRLPRPRPRPCNGPRP",
    "shrunken log2 fold change": -0.143
  },
  {
    "macromolecule.sequence": "RRIRYRPPRLPRPRPRPALWPRP",
    "shrunken log2 fold change": -0.0105
  },
  {
    "macromolecule.sequence": "RRIRGRPPRLPRPRPRPWRRPRP",
    "shrunken log2 fold change": 0.054
  },
  {
    "macromolecule.sequence": "RRIRTRPPRLPRPRPRPAMDPRP",
    "shrunken log2 fold change": -0.708
  }
]
